Tested on: CCRF-CEM leukemia
Assay: NCI-60 one-dose screen, 48 h (100 = growth as untreated, 0 = no growth, -100 = all killed)
Conditions: 10 µM unless noted
This is part of a sample that, as a whole, favours compounds with a hit. Of some 83,000 tested, about 20% had one in any assay. Activity calls are given as the source filed them. Rule for the calls: active = growth percent below 10; inactive = the rest.
result type: growth

Examples from the recorded data:
molecule	assay system	result type	readout value
Cc1cccc2c3c(sc12)C(c1ccc(Cl)cc1)C(C#N)=C(N)O3 (stereo unspecified)	CCRF-CEM leukemia	growth	13.2% (inactive)
CN1C(=C2C(=O)OC(C)(C)OC2=O)CCC1C(=O)NCc1ccc(Cl)cc1Cl (stereo unspecified)	CCRF-CEM leukemia	growth	86.4% (inactive)

Next, consider the following molecule.
Would you mind telling me what growth value was observed for COc1c(B(O)O)cc(F)cc1-c1nc2ccc3[nH]ncc3c2c2c1CCCC2 ?
10.9% (inactive)

---

Tested on: SF-268 CNS
Assay: NCI-60 one-dose screen, 48 h (100 = growth as untreated, 0 = no growth, -100 = all killed)
Details: 10 µM unless noted
This is part of a sample that, as a whole, favours compounds with a hit. Of some 83,000 tested, about 20% had one in any assay.
Kindly apply the following: Met if growth is less than 90%, Not met in every other case.

compound	classification
COc1ccc(-c2nc(NCCO)[nH]c(=O)c2C#N)cc1	Not met
C=C1C(=O)O[C@H]2[C@H]1CC/C(COC(=O)CSCC(=O)OC/C1=C/CC[C@@]3(C)O[C@H]3[C@H]3OC(=O)C(=C)[C@@H]3CC1)=C\CC[C@@]1(C)O[C@@H]21	Met
CCCC1CCC(O)(C(C)(O)C(=O)NC2C(=O)N3NCCCC3C(=O)N(O)C(C)C(=O)N3NCCCC3C(=O)N3NCC(O)CC3C(=O)NC(C)C(=O)OC2C(C)C)OC1CC (stereo not given)	Met
Cc1ccc(C2CC(c3ccc(Nc4ccnc5cc(Cl)ccc45)cc3)=NN2C=O)cc1 (stereo not given)	Met
O=C(Nc1c2ccccc2nc2ccccc12)c1ccccc1CN1C(=O)c2ccccc2C1=O	Met

growth strictly < 90% for this compound? CCOC(=O)CCN(C(=O)Nc1ccccc1)C1CCCCC1
Not met

// query: COc1ccc(-c2nn(C(=O)c3cc(OC)c(OC)c(OC)c3)c3cc(N)ccc23)cc1
Met

// query: Cc1ccc(/C=C(\C#N)n2nc3cccc(F)c3n2)cc1
Not met

// query: O=C1c2cccc3cccc(c23)C(=O)N1Nc1nc(N2CCOCC2)nc(N2CCN(c3ccccc3)CC2)n1
Met

// query: CC(=O)N1CCN(c2ccc(OCC3CO[C@](Cn4ccnc4)(c4ccc(Cl)cc4Cl)O3)cc2)CC1 (stereo not given in full)
Not met

// query: CCc1nnc(NC(=O)c2nnn(-c3ccccc3)c2-c2ccco2)s1
Not met

// query: CN1CCN(Cc2ccc(NC(=O)c3ccc(C(C)(C)C)c(C#Cc4cnc5cccnn45)c3)cc2C(F)(F)F)CC1
Met

// query: CNc1nc2c(s1)C(c1cccc(F)c1)CC(=O)N2 (stereo not given)
Not met

// query: COc1cc(C(=O)c2cc(C)c3[nH]c4ccc(O)cc4c3c2C)cc(OC)c1OC
Met

// query: COc1cc(C(=O)/C=C/c2c(Cl)nc3sccn23)cc(OC)c1OC
Met

// query: OC(c1ccccc1)C(NC(Cc1ccccc1)c1ccccc1)c1ccccc1 (stereo not given)
Met

// query: CCOC(=O)c1c2c(n(-c3ccc(C#N)cc3)c1-c1ccccc1)C=CCC2
Not met

// query: Cc1oc2nc[nH]c(=O)c2c1C(=O)/C=C/c1ccc(Br)cc1
Met

// query: COc1nc2ccc(C)cc2cc1-c1nc2c(cnn2-c2ccc(Br)cc2)c(=O)[nH]1
Met

---

Items are presented alongside their recorded growth.
System: NCI-H322M lung
Assay: NCI-60 one-dose screen, 48 h (100 = growth as untreated, 0 = no growth, -100 = all killed)
Details: 10 µM unless noted
The panel holds about 83,000 compounds, 20% with a hit somewhere; the sample as a whole holds those more often.
Give your result in % as a bare value.

Examples from the recorded data:
compound	growth [%]
N#CC1=C(N)Oc2c(sc3c(Br)cccc23)C1c1ccc([N+](=O)[O-])cc1 (stereo not given)	40.6
Cc1ccc(NC2=C(Cl)C(=O)c3nc(C)ccc3C2=O)cc1	55.7
NCCCNc1nc2ccccc2c2c(=O)c3cccc(F)c3sc12	46.8

Would you mind telling me what growth value was observed for Cc1cc(Cl)ccc1NS(=O)(=O)c1ccc(-c2cnc(C3CC3)o2)cc1 ?
50.7

// query: O=C(O)CCC/C=C\C[C@H]1C=CC(=O)/C1=C/C[C@@H](O)CCc1cccc(C(F)(F)F)c1
11.3

---

Test system: UACC-62 melanoma
Assay: NCI-60 one-dose screen, 48 h
Details: 10 µM unless noted
The panel holds about 83,000 compounds, 20% with a hit somewhere; the sample as a whole holds those more often. Activity calls are given as the source filed them. Rule for the calls: active = growth percent below 10; inactive = the rest.
Would you mind answering with one of these outcomes? active, inactive

Worked set:
compound	assay system	classification
Cc1nc2ccccc2n1-c1ncnc2c1CC(C)c1ccccc1N2C (stereo not given)	UACC-62 melanoma	inactive
CN1CCN(c2ccc(-c3cnc4c(-c5csc6ccccc56)cnn4c3)cc2)CC1	UACC-62 melanoma	active
CC1(C)C2CC1C1(/C=N\Nc3ccccc3)C(C2)C(C#N)(C#N)C1(C#N)C#N (stereo not given)	UACC-62 melanoma	inactive
COc1ccc(C(=O)C(C)C)c2ccccc12	UACC-62 melanoma	inactive
c1ccc(CO[C@H]2CO[C@H]3[C@@H]2OC[C@@H]3Oc2ccc(Nc3ncnc4ccsc34)cc2)cc1	UACC-62 melanoma	inactive

Please turn your attention to the following entry.
What did the test return for CCOC(=O)C1=C(N)Oc2c(sc3c(C)cccc23)C1c1ccc(F)cc1 (stereo not given) ?
inactive

---

Tested on: KM12 colon
Test: NCI-60 one-dose screen, 48 h
Details: 10 µM unless noted
Compounds without any hit were thinned out: in the full panel of roughly 83,000, 20% have a hit. Calls of active or inactive are those of the source. Rule for the calls: active = growth percent below 10; inactive = the rest.
Would you mind answering with one of these outcomes? active, inactive

Worked set:
molecule	classification
Cc1[nH]c(C(=O)Nc2ccc(C(=O)NCCN)cc2OC(C)C)c(Cl)c1Cl	active
CC1CN(C2CCCCC2)C(=S)N(c2ccccc2)C1=O (stereo unspecified)	inactive

What did the test return for Cc1onc2c(-c3ccccc3)n[nH]c(=O)c12 ?
inactive

// query: Cc1c(C(=O)/C=C/Nc2c(Cl)cc(S(N)(=O)=O)cc2Cl)sc2nc3ccccc3n12
inactive

---

System: UO-31 renal
Assay: NCI-60 one-dose screen, 48 h
Settings: 10 µM unless noted
Protocol: Growth inhibition of the UO-31 human tumor cell line is measured as a screen for anti-cancer activity. Cells are grown in 96 well plates and exposed to the test compound for 48 hours. Compounds are tested at a single concentration, which is 10^-5 M for most compounds. The reported endpoint is percent growth (GI% or GIPRCNT), where numbers from 0 - 100% represent growth inhibition, and numbers from -100% - 0 represent cell death. For example, a value of 40 represents 60% growth inhibition. […]
The panel holds about 83,000 compounds, 20% with a hit somewhere; the sample as a whole holds those more often. Calls of active or inactive are those of the source. How the source made its calls: active means growth percent below 10; inactive means the rest.
Would you mind answering with one of these outcomes? class 1 for active, class 0 for inactive

What did the test return for COc1ccc(-c2cc(-c3cc(OC)c(OC)c(OC)c3)nc(N3CCOCC3)c2C#N)cc1 ?
class 0

// query: COc1cc(C2CC(c3ccc(SC)cc3)=NN2C(C)=O)cc(OC)c1OC (stereo unspecified)
class 0

// query: CCCCCCCCCCCCCCCCCCOc1ccc(CC(=O)OCC[N+]2(C)CCCCC2)cc1
class 0

// query: c1ccc(CO[C@H]2CO[C@H]3[C@@H]2OC[C@@H]3Oc2ccc(Nc3ncnc4ccsc34)cc2)cc1
class 0

// query: Cc1ccc2sc3c(NCCN)nc4ccccc4c3c(=O)c2c1
class 0

// query: CC(=O)CC(c1ccccc1)c1c(C)[nH]c2ccccc12 (stereo unspecified)
class 0

// query: CCN(CC)CCNC(=O)c1cn2ncnc(Oc3ccc(NC(=O)Nc4ccc(Cl)c(C(F)(F)F)c4)cc3)c2c1C
class 1

// query: Cc1cc2nc3cc(C)c(N)cc3[n+](-c3ccccc3)c2cc1N
class 0

// query: CCC(=O)Nc1ccc(-c2nc(-c3cccc(OC)c3)c(-c3ccnc(Br)c3)[nH]2)cc1
class 0

// query: CN(C)CCNc1nc2ccccc2c2c(=O)c3cc(F)ccc3sc12
class 0

// query: COc1ccn2c(C(C)=O)cc(C(=O)c3ccc4c(c3)Sc3ccccc3N4)c2c1
class 0

// query: [O-][n+]1c2ccccc2[n+]([O-])c2c3ccccc3[nH]c21
class 0

// query: CCCCn1c(=O)c(-c2cc(-c3ccc(Cl)cc3)nc(-c3ccc(Cl)cc3)c2)cc2cc(Cl)ccc21
class 0

// query: CSc1nc2ccc(C)cc2cc1/C=N/O
class 0

// query: CCOC(=O)Nc1ccc(C(=O)/C=C/c2ccccc2)cc1
class 0

// query: COc1ccc(/C=C/c2c(C(=O)/C=C/c3ccc(Cl)cc3)c(C)nc3ccccc23)cc1
class 1

// query: c1ccc2cc(C[n+]3ccn(CCCCCCn4cc[n+](Cc5ccc6ccccc6c5)c4)c3)ccc2c1
class 0

// query: Cc1ccc(/C=C2\Oc3ccc(O)c(O)c3C2=O)cc1
class 0

// query: CCC(C)(c1cc(C(C)(C)C)c(O)c(C(C)(C)C)c1)c1cc(C(C)(C)C)c(O)c(C(C)(C)C)c1
class 0

The measurements presented in this section are drawn from PubChem BioAssay (NCI).
